The values you see were collected from PubChem BioAssay AID330.

Tested on: P388 leukemia ip, CD2F1 mice, survival T/C
Assay: NCI In Vivo Anticancer Drug Screen. Data for tumor model P388 Leukemia (intraperitoneal) in CD2F1 (CDF1) mice
Settings: endpoint: median survival time; dose: 240.0 mg/kg/injection; schedule: Q01DX005 (ip); vehicle: saline; higher = longer survival
Toxic doses and inconclusive results are not listed.
Answer each item with its documented T/C.

Dear colleague, I am looking for the recorded T/C of the following compound: CCOP(=O)(CC=O)OCC
101 % of control

I'd like to know its T/C. The compound in question is O=S(=O)(O)c1ccc(-c2nnc(-c3ccccn3)nc2-c2ccc(S(=O)(=O)O)o2)o1
102 % of control

Record request: T/C value, item CONC(C)=O
100 % of control

// returns reported T/C for input Oc1ccc2[nH]cc(CCNCC3(O)OCC(O)C(O)C3O)c2c1 (configuration not stated)
91 % of control

// returns reported T/C for input CC1CN2CCOC2(C)O1 (configuration not stated)
101 % of control

Sample COc1cc2c(cc1OC)C13CCN4C(=O)C(=O)C(CC41)C1C(OCC(=O)O)CC(=O)N2C13 (configuration not stated) — what was its T/C?
100 % of control

Can you look up the measured T/C of COC(=O)c1cn[nH]c1CC(N)=O for me?
103 % of control

###

System: P388 leukemia ip, CD2F1 mice, survival T/C
Assay: NCI In Vivo Anticancer Drug Screen. Data for tumor model P388 Leukemia (intraperitoneal) in CD2F1 (CDF1) mice
Settings: endpoint: median survival time; dose: 50.0 mg/kg/injection; schedule: Q01DX005 (ip); vehicle: saline with Tween-80; higher = longer survival
Inconclusive results and toxic doses are left out.
experimental.readout: T/C

What reported T/C corresponds to CC(C)=CCCC1=C2[C@H](O)C=C(C)C[C@@H]2OC1=O on P388 leukemia ip, CD2F1 mice, survival T/C?
100 % of control

Could you share what T/C was measured for C/C(N=NC(=S)N1CCCCCC1)=C1\C=CC=CN1O , tested on P388 leukemia ip, CD2F1 mice, survival T/C?
106 % of control

What reported T/C corresponds to Cc1cc(=O)n(-c2ccc(S(=O)(=O)Nc3nccs3)cc2)c(C)c1C(=O)O on P388 leukemia ip, CD2F1 mice, survival T/C?
103 % of control

Short answer please: T/C, P388 leukemia ip, CD2F1 mice, survival T/C, entry O=C(O)CC1C=CC2C=CC1C=C2 (configuration not stated)
101 % of control

So what T/C did c1ccc2c(-c3ccncc3)c3c(ccc4ccccc43)cc2c1 get with P388 leukemia ip, CD2F1 mice, survival T/C?
100 % of control

Kindly state the measured T/C obtained for CCCCCNCC(=O)N1CCCC1C(=O)OC(C)(C)C (configuration not stated) with P388 leukemia ip, CD2F1 mice, survival T/C.
97 % of control

Give T/C (P388 leukemia ip, CD2F1 mice, survival T/C) of the following molecule: CC1(C)CC(=O)[C@H]2SCC(=O)CC21 (some centres not stated)
86 % of control

Query for P388 leukemia ip, CD2F1 mice, survival T/C: what T/C does the record show for CCC(=O)C(=O)NC(C)C(C)=O (configuration not stated) ?
99 % of control

Test system P388 leukemia ip, CD2F1 mice, survival T/C; read-out T/C; what value for N#C/C(=N\NC(=O)c1ccccc1Cl)c1ccccc1Cl ?
97 % of control

Please tell me: T/C of Clc1ccc2nc3c(c(N4CCCCC4)c2c1)CCCC3 , system P388 leukemia ip, CD2F1 mice, survival T/C?
105 % of control

API: value(readout=T/C, system=P388 leukemia ip, CD2F1 mice, survival T/C) for record Cc1cc2c(C(C)C)c(O)c(O)c(C=Nc3ccc(C(=O)NCC(=O)O)cc3)c2c(O)c1-c1c(C)cc2c(C(C)C)c(O)c(O)c(C=Nc3ccc(C(=O)NCC(=O)O)cc3)c2c1O
94 % of control

State its T/C on P388 leukemia ip, CD2F1 mice, survival T/C: CCOC(=O)c1csc(-c2ccc(COC(=O)c3ccccc3)o2)n1
100 % of control

API: value(readout=T/C, system=P388 leukemia ip, CD2F1 mice, survival T/C) for record O=S1(=O)C=C(Cl)C1
110 % of control

Kindly state the measured T/C obtained for CCN(CC)CCCNCc1cc(-c2ccccc2)nc2cc(Cl)ccc12 with P388 leukemia ip, CD2F1 mice, survival T/C.
102 % of control

Provide value of T/C for this record tested with P388 leukemia ip, CD2F1 mice, survival T/C: O=C1c2ccccc2C(=O)c2cc3c(cc21)C1OC3C2=C1CC1C(=O)OC(=O)C1C2 (configuration not stated)
111 % of control

Give T/C (P388 leukemia ip, CD2F1 mice, survival T/C) of the following molecule: COCCOc1cccc2c1C(=O)c1ccccc1C2=O
102 % of control

Notebook entry, P388 leukemia ip, CD2F1 mice, survival T/C assay: T/C of COc1ccc2nc(C#N)ccc2c1 = ?
92 % of control

Request - read-out T/C | tested on P388 leukemia ip, CD2F1 mice, survival T/C | molecule CCNc1ccc2c(-c3ccccc3C(=O)O)c3ccc(=[N+](CC)CC)cc-3oc2c1
105 % of control

# returns recorded T/C (system: P388 leukemia ip, CD2F1 mice, survival T/C) for CC1(C)OCC(C2OC3OC(C)(C)OC3C2NN)O1 (configuration not stated)
95 % of control

What T/C appears in the records for this molecule with P388 leukemia ip, CD2F1 mice, survival T/C? c1ccc(C2=NN=C(c3ccccc3)N(c3ccccc3)N2)cc1
105 % of control

Provide the documented T/C with P388 leukemia ip, CD2F1 mice, survival T/C as the system for c1ccc(Nc2nnnn2-c2ccccc2)cc1
100 % of control

Recall the recorded T/C for C1COCCCOCCCOCCCC2(CCCOCCCOC1)CO2 with P388 leukemia ip, CD2F1 mice, survival T/C and state it.
110 % of control
